Let's look at some molecules and their measured relative viability.
test system: SW684; test: relative viability vs DMSO control (72 h) (fraction); higher = more viable cells; settings: 0.01372 µM

CC(C)Oc1ccc(-c2nn([C@@H](C)c3oc4ccc(F)cc4c(=O)c3-c3cccc(F)c3)c3ncnc(N)c23)cc1F [Umbralisib] = 1.2
CC1(C)CC=C(c2nc(C3CC(C)(C)OC(C)(C)C3)ccc2NC(=O)c2nc(C#N)c[nH]2)CC1 [Edicotinib] = 1.13
CC#CC(=O)N1CCC[C@H]1c1nc(-c2ccc(C(=O)Nc3ccccn3)cc2)c2c(N)nccn12 [Acalabrutinib] = 1.13

Next molecule, relative viability to be filled in.
stdin: State relative viability (SW684) of CC1(COc2ccc3c(c2)ncn3-c2ccc3cccc(N4CCC(N)CC4)c3n2)COC1 [Crenolanib] .
stdout: 1.04
